Recorded values, source patent US12629424B2.

System: GST-Plek2 (Homo sapiens)
Construct: made in house
Sequence (Q9NYT0 1-353): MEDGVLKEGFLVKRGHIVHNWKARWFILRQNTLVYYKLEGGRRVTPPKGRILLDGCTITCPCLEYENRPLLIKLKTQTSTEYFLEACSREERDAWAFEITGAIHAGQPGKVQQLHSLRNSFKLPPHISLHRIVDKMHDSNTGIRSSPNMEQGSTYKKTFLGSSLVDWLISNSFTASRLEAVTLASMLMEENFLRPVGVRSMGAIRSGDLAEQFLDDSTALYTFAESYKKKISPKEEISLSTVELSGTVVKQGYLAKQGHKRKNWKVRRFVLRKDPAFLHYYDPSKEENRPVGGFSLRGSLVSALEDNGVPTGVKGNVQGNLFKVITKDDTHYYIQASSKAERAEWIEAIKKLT
Assay protocol: isothermal titration calorimetry (ITC) of NUP-17d and its enantiomers with Plek2
Type: binding
Condition parameters: FIG. 17, general method: MicroCal ITC200, 25° C, PBS with 0.5% DMSO, 200 μM compound into 20 μM GST-Plek2
Parameter measured: Kd (nM)
Response body: numeric value in nM, unit text excluded.

Compound	Parameter measured	Reported result
CN1CCN([C@@H](c2ccc(Cl)cc2)[C@H](O)C(=O)c2c[nH]c3ccccc23)CC1 [17d-1b]	Kd	357

Next, consider the following compound.
Given item CN1CCN(C(c2ccc(Cl)cc2)C(O)C(=O)c2c[nH]c3ccccc23)CC1 (centres unmarked) [17d] , the value recorded as its Kd is 400

###

System: GST-Plek2 (Homo sapiens)
Construct: made in house
Sequence (Q9NYT0 1-353): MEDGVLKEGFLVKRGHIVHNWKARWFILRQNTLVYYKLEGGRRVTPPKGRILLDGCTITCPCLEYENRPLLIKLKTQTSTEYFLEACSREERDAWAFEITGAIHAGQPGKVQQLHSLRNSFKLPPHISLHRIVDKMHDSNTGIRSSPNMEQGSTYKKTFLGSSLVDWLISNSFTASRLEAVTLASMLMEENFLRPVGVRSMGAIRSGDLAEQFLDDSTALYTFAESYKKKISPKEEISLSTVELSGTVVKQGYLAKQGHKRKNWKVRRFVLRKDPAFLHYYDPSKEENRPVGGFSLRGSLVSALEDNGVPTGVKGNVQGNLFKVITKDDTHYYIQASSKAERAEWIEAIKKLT
Assay protocol: isothermal titration calorimetry (ITC) of NUP-17d and its enantiomers with Plek2
Format: binding
Condition parameters: FIG. 17, value printed in uM, general method: MicroCal ITC200, 25° C, PBS with 0.5% DMSO, 200 μM compound into 20 μM GST-Plek2
Parameter measured: Kd (µM)
Response body: numeric value in µM, unit text excluded.

Entry CN1CCN([C@H](c2ccc(Cl)cc2)[C@@H](O)C(=O)c2c[nH]c3ccccc23)CC1 [17d-1a] , GST-Plek2 (Homo sapiens) data, Kd value: 2.12
